# Test system: SK-MEL-2
# protocol details: NCI in vitro cancer screen, Melanoma
# Format: cell-based, human
# condition info: Homo sapiens, SK-MEL-2
compounds and their reported LC50
quantity measured: LC50 (µM)

• COc1cc(/C=C/c2cc(O)cc(OC)c2CC=C(C)C)ccc1O [USYDS1] = 38
• COc1cc(/C=C/c2cc(O)cc(OCC=C(C)C)c2)ccc1O [USYDS2] = 41.6
• CC(C)=CCc1c(O)cc(/C=C/c2ccc(O)c(O)c2)c(CC=C(C)C)c1O [USYDS7] = 42.9
• CC(C)=CCOc1cc(O)cc(/C=C/c2ccc(O)c(O)c2)c1 [USYDS4] = 31
• COc1cc(/C=C/c2cc(O)c(CC=C(C)C)c(O)c2)ccc1O [USYDS13] = 40.2
